Assay: Bidirectional transport in the Caco-2 monolayer model
Type: in vitro ADME, human
Details: human, pH 6.8; Caco-2, pH6.8, mean ± SD (n = 3); read-out: Papp Basolateral to apical
endpoint.name: Papp B→A (×10⁻⁶ cm/s)
Output spec: scalar in ×10⁻⁶ cm/s, unitless text.

Fill in the blank: the reported Papp B→A of `O=c1c(-c2ccc(O)cc2)coc2cc(O[C@@H]3O[C@H](CO)[C@@H](O)[C@H](O)[C@H]3O)ccc12` is ____.
0.53

---

Test: Bidirectional transport in the Caco-2 monolayer model
Type: in vitro ADME, human
Conditions: human, Caco-2, pH 6.8, Recovery Apical to basolateral
endpoint.name: recovery (%)
Output spec: scalar in %, unitless text.

Fill in the blank: the reported recovery of `O=c1c(-c2ccc(O)cc2)coc2cc(O)ccc12` is ____.
83.1

---

Experiment: Partition coefficients (octanol/aqueous)
Type: physicochemical
Settings: pH 6.8, 24 hours equilibration; read-out: partition coefficient D (LogD, octanol/aqueous)
endpoint.name: logD at 24 h
Form rule: numeric answer, no unit written next to it.

Fill in the blank: the reported logD at 24 h of `O=c1c(-c2ccc(O)cc2)coc2cc(O[C@@H]3O[C@H](CO)[C@@H](O)[C@H](O)[C@H]3O)ccc12` is ____.
0.34

---

Assay: Bidirectional transport in the Caco-2 monolayer model
Assay type: in vitro ADME, human
Details: human, Caco-2, pH 6.8, Caco-2, pH6.8, mean ± SD (n = 3); read-out: Recovery Apical to basolateral
Entries and their recovery values follow.
Output spec: scalar in %, unitless text.

> print(dat)
                            chemical.string  result.unit  result
1  O=c1c(-c2ccc(O)cc2)coc2c([C@@H]3O[C@H](CO)[C@@H](O)[C@H](O)[C@H]3O)c(O)ccc12            %    88.9

Please examine the following record next.
Fill in the blank: the reported recovery of `O=c1c(-c2ccc(O)cc2)coc2cc(O[C@@H]3O[C@H](CO)[C@@H](O)[C@H](O)[C@H]3O)ccc12` is ____.
92.9

---

Entries and their recovery values follow.
Assay: Bidirectional transport in the Caco-2 monolayer model
Type: in vitro ADME, human
Settings: human, Caco-2, pH 6.8, Caco-2, pH6.8, mean ± SD (n = 3); read-out: Recovery Basolateral to apical

> print(dat)
                                   compound  result
1  O=c1c(-c2ccc(O)cc2)coc2cc(O[C@@H]3O[C@H](CO)[C@@H](O)[C@H](O)[C@H]3O)ccc12 [Daidzin, daidzin]   99.2%

Please examine the following record next.
Fill in the blank: the reported recovery of O=c1c(-c2ccc(O)cc2)coc2c([C@@H]3O[C@H](CO)[C@@H](O)[C@H](O)[C@H]3O)c(O)ccc12 [Puerarin, puerarin] is ____.
92.7%

---

Assay: Bidirectional transport in the Caco-2 monolayer model
Format: in vitro ADME, human
Conditions: human, Caco-2, pH 6.8, Recovery Basolateral to apical
endpoint.name: recovery (%)
Output spec: scalar in %, unitless text.

Fill in the blank: the reported recovery of `O=c1c(-c2ccc(O)cc2)coc2cc(O)ccc12` is ____.
84
